Biological target: T1, IL-18 receptor (IL-18Rα and IL-18Rβ) (UniProt Q13478 19-541; O95256 20-599, limits assumed)
T1 sequence (looked up) 1: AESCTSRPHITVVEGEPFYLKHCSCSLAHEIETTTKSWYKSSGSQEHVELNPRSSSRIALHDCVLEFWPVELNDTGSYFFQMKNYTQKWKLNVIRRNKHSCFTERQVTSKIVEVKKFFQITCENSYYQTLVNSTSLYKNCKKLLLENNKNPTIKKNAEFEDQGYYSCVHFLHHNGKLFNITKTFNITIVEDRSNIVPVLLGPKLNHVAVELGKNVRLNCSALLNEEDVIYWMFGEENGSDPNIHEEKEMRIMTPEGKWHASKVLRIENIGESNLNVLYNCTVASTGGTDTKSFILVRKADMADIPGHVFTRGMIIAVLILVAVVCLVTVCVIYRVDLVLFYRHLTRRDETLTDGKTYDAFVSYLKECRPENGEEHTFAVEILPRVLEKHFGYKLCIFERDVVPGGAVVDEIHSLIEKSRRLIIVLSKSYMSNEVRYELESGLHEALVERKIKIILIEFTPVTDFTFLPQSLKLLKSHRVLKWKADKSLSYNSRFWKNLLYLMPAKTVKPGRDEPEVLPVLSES
T1 sequence (looked up) 2: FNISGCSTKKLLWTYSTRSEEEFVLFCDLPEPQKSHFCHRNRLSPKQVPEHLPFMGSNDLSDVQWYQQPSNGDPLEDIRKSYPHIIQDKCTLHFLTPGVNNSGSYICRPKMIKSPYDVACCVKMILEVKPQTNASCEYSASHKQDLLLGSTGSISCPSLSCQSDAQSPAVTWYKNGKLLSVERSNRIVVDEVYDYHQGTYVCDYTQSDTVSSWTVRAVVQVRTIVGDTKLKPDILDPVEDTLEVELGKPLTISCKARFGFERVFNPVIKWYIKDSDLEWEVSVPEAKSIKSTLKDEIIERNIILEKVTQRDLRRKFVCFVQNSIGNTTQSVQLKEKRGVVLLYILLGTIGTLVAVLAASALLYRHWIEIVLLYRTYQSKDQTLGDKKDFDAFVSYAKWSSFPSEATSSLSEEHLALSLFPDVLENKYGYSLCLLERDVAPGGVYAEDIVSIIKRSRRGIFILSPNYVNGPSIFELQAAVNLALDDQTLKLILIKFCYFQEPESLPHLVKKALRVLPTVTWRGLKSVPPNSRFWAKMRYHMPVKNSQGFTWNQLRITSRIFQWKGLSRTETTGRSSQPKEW
Test: cell-based or functional assay
metric: PBMC IFN gamma EC50 relative to WT-IL18, average

binder="hIL18 (G3V, K53A, M60K) - KiH (Fc fusion) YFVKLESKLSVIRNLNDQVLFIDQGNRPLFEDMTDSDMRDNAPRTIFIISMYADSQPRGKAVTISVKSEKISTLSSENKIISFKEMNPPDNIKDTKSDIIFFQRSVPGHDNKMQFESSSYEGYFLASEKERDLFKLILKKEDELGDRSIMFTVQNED" experimentalvalue=0.43
binder="hIL18 (G3V, K53S, M60K) - KiH (Fc fusion) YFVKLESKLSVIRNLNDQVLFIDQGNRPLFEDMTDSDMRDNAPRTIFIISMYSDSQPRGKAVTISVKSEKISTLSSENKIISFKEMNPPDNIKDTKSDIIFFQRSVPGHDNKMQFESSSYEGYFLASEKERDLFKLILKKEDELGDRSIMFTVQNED" experimentalvalue=3.75
binder="hIL18 (G3T, E6K, K53A, M60K) - KiH (Fc fusion) YFTKLKSKLSVIRNLNDQVLFIDQGNRPLFEDMTDSDMRDNAPRTIFIISMYADSQPRGKAVTISVKSEKISTLSSENKIISFKEMNPPDNIKDTKSDIIFFQRSVPGHDNKMQFESSSYEGYFLASEKERDLFKLILKKEDELGDRSIMFTVQNED" experimentalvalue=0.11
